Entries with reported IC50 on HePTP (Homo sapiens, UniProt P35236)
Sequence (P35236 whole entry): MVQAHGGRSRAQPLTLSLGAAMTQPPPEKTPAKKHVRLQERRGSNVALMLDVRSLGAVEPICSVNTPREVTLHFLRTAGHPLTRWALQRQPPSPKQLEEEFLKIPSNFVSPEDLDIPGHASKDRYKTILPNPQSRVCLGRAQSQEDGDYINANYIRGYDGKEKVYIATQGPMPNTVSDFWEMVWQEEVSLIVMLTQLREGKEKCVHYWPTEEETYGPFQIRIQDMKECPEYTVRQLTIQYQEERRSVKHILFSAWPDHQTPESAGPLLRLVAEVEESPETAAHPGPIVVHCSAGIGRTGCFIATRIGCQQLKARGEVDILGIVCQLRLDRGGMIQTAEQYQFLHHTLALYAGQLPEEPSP

O=C(Nc1ccc(-n2ccnc2)cc1)C(c1ccccc1)S(=O)(=O)O (centres unmarked)    > 100 µM

Query the reported IC50 for HePTP (Homo sapiens, UniProt P35236); item: Cc1c(Br)cc(NC(=O)C(c2ccccc2)S(=O)(=O)O)cc1Br (centres unmarked)
> 200 µM

====

- Assay system: CD45 (Homo sapiens, UniProt P08575)
- Sequence (P08575 26-1306): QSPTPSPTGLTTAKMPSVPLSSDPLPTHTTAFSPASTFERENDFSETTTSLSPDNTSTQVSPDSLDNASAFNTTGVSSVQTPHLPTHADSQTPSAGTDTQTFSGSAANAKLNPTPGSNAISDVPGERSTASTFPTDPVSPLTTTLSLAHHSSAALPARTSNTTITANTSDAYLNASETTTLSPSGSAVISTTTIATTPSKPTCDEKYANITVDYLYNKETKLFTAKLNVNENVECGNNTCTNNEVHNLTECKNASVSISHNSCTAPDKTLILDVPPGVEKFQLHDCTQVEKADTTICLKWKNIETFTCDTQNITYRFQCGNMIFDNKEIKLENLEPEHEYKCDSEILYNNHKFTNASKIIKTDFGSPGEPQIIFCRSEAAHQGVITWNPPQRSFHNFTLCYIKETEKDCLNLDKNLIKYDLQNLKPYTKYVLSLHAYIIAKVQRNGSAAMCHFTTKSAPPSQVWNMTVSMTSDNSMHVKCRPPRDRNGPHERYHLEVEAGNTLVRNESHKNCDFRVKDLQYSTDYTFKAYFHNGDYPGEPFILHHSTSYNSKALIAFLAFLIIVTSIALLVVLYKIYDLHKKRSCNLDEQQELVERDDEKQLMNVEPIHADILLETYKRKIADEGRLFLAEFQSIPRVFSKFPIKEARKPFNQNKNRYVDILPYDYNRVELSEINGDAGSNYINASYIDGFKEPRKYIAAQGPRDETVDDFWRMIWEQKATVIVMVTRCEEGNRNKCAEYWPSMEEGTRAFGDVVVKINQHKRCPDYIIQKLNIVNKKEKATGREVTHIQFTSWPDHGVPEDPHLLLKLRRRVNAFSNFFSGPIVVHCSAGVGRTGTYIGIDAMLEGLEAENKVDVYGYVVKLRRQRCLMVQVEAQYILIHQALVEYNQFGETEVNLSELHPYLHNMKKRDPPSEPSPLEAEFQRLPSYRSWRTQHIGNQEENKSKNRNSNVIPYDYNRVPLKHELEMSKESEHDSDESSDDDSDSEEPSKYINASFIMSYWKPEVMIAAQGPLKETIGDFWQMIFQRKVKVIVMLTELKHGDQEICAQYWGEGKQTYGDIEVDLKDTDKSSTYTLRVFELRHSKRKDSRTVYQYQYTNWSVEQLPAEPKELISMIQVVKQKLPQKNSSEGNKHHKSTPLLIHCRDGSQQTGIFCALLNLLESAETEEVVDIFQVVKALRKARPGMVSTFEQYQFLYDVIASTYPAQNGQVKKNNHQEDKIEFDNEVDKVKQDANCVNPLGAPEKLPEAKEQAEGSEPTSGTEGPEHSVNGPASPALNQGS
pIC50: −log10 of the molar value.
Outcome measure: pIC50

For the record Cc1c(Br)cc(NC(=O)C(c2ccccc2)S(=O)(=O)O)cc1Br (stereo not shown) , what value of pIC50 is listed for CD45 (Homo sapiens, UniProt P08575)?
< 3.70

====

Below are IC50 values recorded for FAP1 (Homo sapiens, UniProt Q12923).

Cc1c(Br)cc(NC(=O)C(c2ccccc2)S(=O)(=O)O)cc1Br (centres unmarked) [Compound L319M34]    > 200 µM

Pending compound:
Looking for the measured IC50 of O=C(Nc1ccc(-n2ccnc2)cc1)C(c1ccccc1)S(=O)(=O)O (centres unmarked) [Compound L319M63] , can you help?
> 100 µM

====

- Assay system: UniProtKB P18433
- Sequence (P18433 20-802): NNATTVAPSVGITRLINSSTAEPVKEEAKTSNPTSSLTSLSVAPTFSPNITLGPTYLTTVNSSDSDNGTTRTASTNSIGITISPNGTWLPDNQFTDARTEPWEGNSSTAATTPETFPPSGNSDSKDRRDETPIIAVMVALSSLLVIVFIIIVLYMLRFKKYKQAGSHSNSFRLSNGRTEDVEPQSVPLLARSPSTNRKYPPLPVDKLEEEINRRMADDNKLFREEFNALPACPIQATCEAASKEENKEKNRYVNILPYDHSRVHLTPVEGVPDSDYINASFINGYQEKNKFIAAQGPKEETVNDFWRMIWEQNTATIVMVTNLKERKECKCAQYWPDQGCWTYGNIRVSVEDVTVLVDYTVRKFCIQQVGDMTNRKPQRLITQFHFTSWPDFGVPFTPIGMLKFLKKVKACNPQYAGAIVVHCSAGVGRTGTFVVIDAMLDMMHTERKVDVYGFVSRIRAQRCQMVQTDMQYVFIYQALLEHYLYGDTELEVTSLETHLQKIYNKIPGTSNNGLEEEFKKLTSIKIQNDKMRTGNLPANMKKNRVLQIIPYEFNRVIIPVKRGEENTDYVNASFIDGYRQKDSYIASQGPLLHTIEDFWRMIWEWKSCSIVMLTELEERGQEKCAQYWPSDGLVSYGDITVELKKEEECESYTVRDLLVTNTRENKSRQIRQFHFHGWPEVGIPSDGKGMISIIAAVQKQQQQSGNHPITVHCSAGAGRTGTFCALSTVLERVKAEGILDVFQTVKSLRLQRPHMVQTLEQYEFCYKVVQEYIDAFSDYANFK
- Assay explanation: PTPα inhibition, pNPP substrate
- Assay type: biochemical
- Condition label: pNPP at Km, pH 7.0, 25° C.
pIC50: −log10 of the molar value.
Outcome measure: pIC50

Quick check: pIC50 of Cc1c(Br)cc(NC(=O)C(c2ccccc2)S(=O)(=O)O)cc1Br (stereo not shown) [Compound L319M34] ?
< 3.70

====

Target chain: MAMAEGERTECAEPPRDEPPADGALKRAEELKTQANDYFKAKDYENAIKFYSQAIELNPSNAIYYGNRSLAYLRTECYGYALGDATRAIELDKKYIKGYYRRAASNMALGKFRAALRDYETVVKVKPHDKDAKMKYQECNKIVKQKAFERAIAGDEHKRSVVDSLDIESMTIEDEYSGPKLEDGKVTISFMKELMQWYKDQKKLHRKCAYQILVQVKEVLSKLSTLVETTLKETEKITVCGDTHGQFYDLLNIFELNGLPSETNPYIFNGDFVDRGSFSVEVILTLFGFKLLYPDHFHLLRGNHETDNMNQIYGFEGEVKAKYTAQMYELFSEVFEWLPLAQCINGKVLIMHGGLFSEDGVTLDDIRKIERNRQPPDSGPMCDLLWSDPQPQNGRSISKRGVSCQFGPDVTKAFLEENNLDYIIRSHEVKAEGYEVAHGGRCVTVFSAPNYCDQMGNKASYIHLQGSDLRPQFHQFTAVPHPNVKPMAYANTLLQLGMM
pIC50: −log10 of the molar value.
Outcome measure: pIC50

Reported pIC50 for Cc1c(Br)cc(NC(=O)C(c2ccccc2)S(=O)(=O)O)cc1Br (stereo not shown) : what is it?
< 3.70

====

- Assay system: PEST (Homo sapiens, UniProt Q05209)
- Sequence (Q05209 1-780): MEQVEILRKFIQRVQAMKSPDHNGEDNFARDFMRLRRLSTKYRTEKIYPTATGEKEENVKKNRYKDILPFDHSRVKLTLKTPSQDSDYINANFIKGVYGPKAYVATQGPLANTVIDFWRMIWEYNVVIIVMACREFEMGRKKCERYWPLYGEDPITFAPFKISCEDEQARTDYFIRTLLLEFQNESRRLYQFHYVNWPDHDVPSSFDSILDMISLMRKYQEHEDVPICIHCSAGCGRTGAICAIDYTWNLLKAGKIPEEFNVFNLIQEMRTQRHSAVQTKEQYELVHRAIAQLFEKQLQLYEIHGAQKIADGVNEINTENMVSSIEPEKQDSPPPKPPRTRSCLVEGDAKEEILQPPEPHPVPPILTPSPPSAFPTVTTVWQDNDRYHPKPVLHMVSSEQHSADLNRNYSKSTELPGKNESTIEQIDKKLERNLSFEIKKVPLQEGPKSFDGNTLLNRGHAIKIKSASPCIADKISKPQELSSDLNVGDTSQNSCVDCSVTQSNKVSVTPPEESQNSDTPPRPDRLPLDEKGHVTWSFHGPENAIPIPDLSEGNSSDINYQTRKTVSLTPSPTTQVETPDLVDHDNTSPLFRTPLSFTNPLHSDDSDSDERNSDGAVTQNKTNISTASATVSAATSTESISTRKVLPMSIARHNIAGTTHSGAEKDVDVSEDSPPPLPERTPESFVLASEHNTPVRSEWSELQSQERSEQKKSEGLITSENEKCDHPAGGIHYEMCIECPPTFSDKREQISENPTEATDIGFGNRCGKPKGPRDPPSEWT
- Assay explanation: PEST inhibition, pNPP substrate
- Format: biochemical
- Condition label: pH 7
pIC50: −log10 of the molar value.
Outcome measure: pIC50

Returns the measured pIC50 for the input compound. Input: O=C(Nc1ccc(-n2ccnc2)cc1)C(c1ccccc1)S(=O)(=O)O (stereo not shown)
< 4.00
